# targetUnderTest: T1, Grb2-SH2 wild-type, GST fusion (residues 58-160) (UniProt P62993 58-160)
# T1 construct: Grb2, SH2 domain, residues 58-160, in pGex2T; also called Grb2-SH2 WT; WT Grb2-SH2
# T1 sequence (P62993 58-160): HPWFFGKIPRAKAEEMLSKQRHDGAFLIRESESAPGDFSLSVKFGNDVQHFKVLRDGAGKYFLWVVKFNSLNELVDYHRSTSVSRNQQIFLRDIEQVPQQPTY
# procedureDetails: SPR; Biacore T100, CM5 chip; GST-SH2 fusion captured by amine-coupled anti-GST antibody, GST alone on the reference cell; G7-18NATE injected 60 s at 30 μL/min in 150 mM NaPO4, 150 mM NaCl, 1 mM DTT, pH 7.4; equilibrium responses fitted by a single-site binding model
# measurementSetup: both partners purified
Bridges are numbered along the chain shown (N, C = ends).
propertyMeasured: Kd

In: Respond only with Kd recorded for {CH2CO}-WFEGYDNTFPC-NH2 (thioether N-11, cyclic peptide developed via phage display against the Grb7-SH2 domain; Purity >95% by LC-MS; source: synthetic peptide (standard Fmoc-chemistry), bought: Purar Chemicals (Australia)) [G7-18NATE (cyclo-(CH2CO-WFEGYDNTFPC)-amide)]
Out: > 125 µM
